Recorded IC50 for the following compounds
System: Huh7
assay-text: Real-time cell electronic sensing (RT-CES) growth analysis, Huh7
Assay type: cell-based
condition-context: Homo sapiens, Huh-7; Huh7, 24h; read-out: IC50 values calculated from RT-CES experiment data, Huh7 24h
Enter your answer as a number in µM; do not include the unit.

For orientation, consider the following solved cases.
O=C(/C=C/c1ccc(Cl)cc1)c1ccccc1 ... 8.7
O=C(/C=C/c1ccccc1)c1ccccc1 ... 16.1

Now examine the next entry.
Query :: GET /values?readout=IC50&item= `COc1ccc(C(=O)/C=C/c2cccc([N+](=O)[O-])c2)cc1`
Result :: 3.7
